Reported TGI values follow for various compounds
# System: TK-10 renal
# protocol: NCI tumour cell line growth inhibition, 48 h
property_measured: TGI (µM)

1) O=C(CN(/C=C/C(=O)C(F)(F)F)c1ccccc1)c1ccc(Cl)c(Cl)c1 | 32.8
2) C[C@]12CCc3sc(Nc4ccc(O)cc4)nc3C1=CC[C@@H]1[C@@H]2CC[C@]2(C)C(=O)CC[C@@H]12 | 4.4
3) C=C1C(=O)O[C@H]2[C@H]3O[C@@H](C[C@@H]12)[C@@]1(C)CC[C@H](O1)C(C)=CCC[C@H]3C | 2.93
4) CCCCN(CCCC)c1ccc(C(=NC(C)CCCN(CC)CC)c2ccc(N(C)C)cc2)cc1 (configuration not stated) | 3.99
5) C/C=C/C=C/CCCCCCCCCCCCCC1(OC)C=CC(CC(=O)OC)OO1 (configuration not stated) | 4.81
6) C/C(=N\NC(=S)Nc1ccc(C)cc1)c1nc2ncccc2[nH]1 | 37
7) CCN1C(=O)N(CC)C2C1NN=c1s/c(=C\c3cc4ccccc4[nH]3)c(=O)n12 (configuration not stated) | 32.3
